# LD50 at 24 h annotations
- Protocol text: Acute toxicity in ip dosed albino CD-1 mouse after 24 hrs
- Type: organism-based
- Run parameters: in vivo
Quantity name: LD50 at 24 h

>  <Compound>
CCN(C)[C@@H]1CCN([C@H]2Cc3ccccc3Sc3ccc(Cl)cc32)C1

>  <Quantity name>
LD50 at 24 h

>  <Test value>
186 mg/kg

$$$$
>  <Compound>
CCN(C)[C@H]1CCN([C@H]2Cc3ccccc3Sc3ccc(Cl)cc32)C1

>  <Quantity name>
LD50 at 24 h

>  <Test value>
175 mg/kg

$$$$
>  <Compound>
CCN(C)[C@@H]1CCN([C@@H]2Cc3ccccc3Sc3ccc(Cl)cc32)C1

>  <Quantity name>
LD50 at 24 h

>  <Test value>
217 mg/kg

$$$$
>  <Compound>
CCN(C)[C@H]1CCN([C@@H]2Cc3ccccc3Sc3ccc(Cl)cc32)C1

>  <Quantity name>
LD50 at 24 h

>  <Test value>
177 mg/kg

$$$$
